Experimental Details: soluble on expression in E. coli; label from the status in PepcDB or PDB records

{"columns": ["Sequence Entry", "soluble on expression in E. coli"],
 "data": [
  ["MEVKMPFVVFVKRSVRFPGKHSYMIGGKSLLEIIVSKLSNIGKVYVFTKDKDIICNGCSIEFDTTNGIITDSVLAAIDKFGTFFAVAGDMPLIKPELVSKMLSQYKGSPLFPRHMDGMLEPLFGIYTEDLYNALKEYLDKGGESLHAFLLTQPLQYYDIGSDDEVNFININYKSDIEKYRDLLVQLLEHHHHHH", "soluble"],
  ["MLTLSFATGTEPNKWFTRFEERTDHGGLRTLSDDDPLSLLVDATADLALVRLPDPRMDNDDTVHVVELYQESMGVALPKEHTLTLLDVVEPSDLDGEIINYITPPSLEVDVAAVRAQLQMVAANVGVVIAPRPLLKVLSGKLVEHREFSDPQRYGQARTRIALVWKKERDGEDIQDFVGIAKGRTVQSSRQSNAKKVSAREKTLAKQKRRKEAGKKPVRKGGRRKR", "not soluble"],
  ["GHMIMANWQSIDELQDIASDLPRFIHALDELSRRLGLNITPLTADHISLRCHQNATAERWRRGFEQCGELLSENMINGRPICLFKLHEPVQVAHWQFSIVELPWPGEKRYPHEGWEHIEIVLPGDPETLNARALALLSDEGLSLPGISVKTSSPKGEHERLPNPTLAVTDGKTTIKFHPWSIEEIVASEQSA", "soluble"],
  ["NATERSPVIIGLAGFTGSGRSFLNRTYTSMDFLTALKEIDEKRSDLGFIIVLPDVMTGLYGNQYLNSSAVGNYEDFIVKDIVGIIRERFGERPMGVFGKSSGGFGSYTLAVRHPDIFSGFIDVSGDSAFEYVYIPDFPDTYKEIRRQGLYRWFDEIHRKLSLQNQDIKVANIVAMSAFYSPDPGSPMGISLPFDIETGELIESVWNRWLKFDPARNIADYMDVLRDMAIFLQVGAKDEFHTDIGIGTMHRKLEQENVVHFYEVYDSGHFGIDYFYLKSLPLLIELIEQ", "not soluble"]
]}

----------
Experimental Details: soluble on expression in E. coli; label from the status in PepcDB or PDB records

{"columns": ["Sequence Entry", "soluble on expression in E. coli"],
 "data": [
  ["MGSDKIHHHHHHMANVVLFGLQDYAELAHYYLEHDSPHQVAAFCVDRQYIPDSGTFKNLPVVAFEDVAHTHPPGDFSFFAPMSPKHMNRDRERIFNAIKAHGYTLISYVSSRATKFDNEIGENCFILEDNTLQPFTRIGDNVVLWSGNHIGHHGRIGDHVTMTSHVVMSGHCDIGAYSFVGVNATLRDGVTIGEGTFVAMASAITKNTEPWSVYRGNPAVKLTMPSTEVKF", "not soluble"],
  ["TDPDADRLGVEIRQPDGSYLNLSGNQIGAIIAKYILEAHKTAGTLPANAALCKSIVSTELVTKIAESYGATMFNVLTGFKFIGEKIHEFETQHNYTYMFGFEESFGYLIKPFVRDKDAIQAVLIVAEIAAYYRSRGMTLADGIEEIYKQYGYFSE", "not soluble"],
  ["MGSDKIHHHHHHMQHHKVAIIGAGAAGIGMAITLKDFGITDVIILEKGTVGHSFKHWPKSTRTITPSFTSNGFGMPDMNAISMDTSPAFTFNEEHISGETYAEYLQVVANHYELNIFENTVVTNISADDAYYTIATTTETYHADYIFVATGDYNFPKKPFKYGIHYSEIEDFDNFNKGQYVVIGGNESGFDAAYQLAKNGSDIALYTSTTGLNDPDADPSVRLSPYTRQRLGNVIKQGARIEMNVHYTVKDIDFNNGQYHISFDSGQSVHTPHEPILATGFDATKNPIVQQLFVTTNQDIKLTTHDESTRYPNIFMIGATVENDNAKLCYIYKFRARFAVLAHLLTQREGLPAKQEVIENYQKNQMYLDDYSCCEVSCTC", "not soluble"]
]}
